Reference for the values: a melting point compilation (Tetko et al.; mined from patent text by program, amines drawn as free bases though some values may be those of a salt)

Experimental readout: melting point

As a guide, the following entries are already answered.
Cc1ccc(C(=O)c2cccc3c2CCC3(C)C(=O)O)cc1 (configuration not stated); 99 to 101 °C
CN(C)S(=O)(=O)c1cccc2c1Sc1ccc(O)cc1N2; 208 to 210 °C
CCC(=CC(CNC(=O)Cc1cccnc1)=NO)C(C)[N+](=O)[O-] (configuration not stated); 123 to 125 °C
Cc1ccc(-c2ccc(C=Cc3ccc(Cl)cc3)s2)s1; 157 to 162 °C
Cc1cc(C)c2cccc(OCc3c(C)ccc(N(C)C(=O)CN)c3C)c2n1; 145 to 148 °C
COC(=O)c1ccccc1Oc1ccc(C)cc1; 31 to 34 °C

We now examine a further compound.
Task item: Indicate its recorded melting point; the compound in question is O=[N+]([O-])c1ccc2[nH]cc(Cn3ccnc3)c2c1
Reply: 230 to 232 °C

====

Experimental readout: melting point

Cn1nc(-c2c(F)cccc2Cl)nc1-c1ccc(F)c(-c2ccc(OC(F)(F)F)cc2)c1; 117 to 119 °C

Task item: Indicate its recorded melting point; the compound in question is CCCCC1(CC)COP(=O)(Cc2ccc([N+](=O)[O-])cc2)OC1 (configuration not stated)
Reply: 111 to 112 °C

Task item: Indicate its recorded melting point; the compound in question is CCOC(=O)c1cc(O)c2ccc3c(c2c1-c1cc(OC)c(OC)c(OC)c1)OCO3
Reply: 151 to 152 °C

Task item: Indicate its recorded melting point; the compound in question is CC=CC(=O)Nc1n[nH]c2ccc(C)cc12
Reply: 218 °C

Task item: Indicate its recorded melting point; the compound in question is Cc1ccc(NC(=O)c2ccc3c(c2)C(=O)N(c2c(Cl)cccc2Cl)C3=O)cc1C
Reply: 238 to 240 °C

====

Experimental readout: melting point

CC(CN(C)C)OC(=O)c1ccc(NC(=O)CCn2cnc3c(=O)[nH]cnc32)cc1 (stereo unspecified); 270 to 275 °C
c1ccc(C2(c3ccccc3)Oc3ccc(-c4nnn[nH]4)cc3O2)cc1; 212 to 215 °C
CC(C)(C)OC(=O)NCCCc1ccccc1O; 75 to 77 °C
O=C(NC1C2CC3CC(C2)CC1C3)c1cc(-c2ccc(Cl)cc2)n(Cc2ccc(Cl)cc2Cl)n1 (stereo unspecified); 154 °C
CN1C(=O)CCC2=C1CCc1c(F)cccc12; 137 to 138 °C

Task item: Indicate its recorded melting point; the compound in question is CCCCCCCCCCCCCCN(C)c1ccc(N)cc1C(=O)O
Reply: 79 °C

Task item: Indicate its recorded melting point; the compound in question is CCCC(Cl)C(=O)c1ccccc1 (stereo unspecified)
Reply: 71 to 72 °C

Task item: Indicate its recorded melting point; the compound in question is CCC(CC)C(NS(=O)(=O)c1ccc(C#N)cc1)c1ccnn1-c1ccccc1 (stereo unspecified)
Reply: 135 to 137 °C

Task item: Indicate its recorded melting point; the compound in question is NC(=O)CCCCCCCCCCCNC(N)=NC(=O)c1nc(Cl)c(N)nc1N
Reply: 192 to 194 °C

Task item: Indicate its recorded melting point; the compound in question is Cc1ccc(C(=O)c2cc(CN(C)C)c(O)c(C(C)(C)C)c2)s1
Reply: 119 to 120 °C

Task item: Indicate its recorded melting point; the compound in question is CNC(=O)c1cccc2cccc(C(=O)Nc3ccc(F)cc3C)c12
Reply: 249 °C

Task item: Indicate its recorded melting point; the compound in question is Cc1nn(C)c2c1nc(O)c1c(C(=O)O)cnn12
Reply: > 300 °C

====

Experimental readout: melting point

O=S(=O)(N[C@H]1CC[C@H](CCN2CCN(c3nccc4c3OCC4)CC2)CC1)c1ccc(F)cc1; 148 °C
Cc1ccc(N2CN(CCN(C)C)CN(C)C2=S)c(C)c1; 65 to 70 °C
CN1CCN(C(=O)c2cc3c4ccccc4n(C)c3s2)CC1; 219 to 220 °C
NCC1Cc2cc(F)cc(-c3ccc(Cl)cc3Cl)c2O1 (configuration not stated); 107 to 109 °C
COc1ccc(N2CCN(c3ccc(S(=O)(=O)N[C@@H](Cc4ccccc4)C(=O)O)cc3)CC2)cc1; 203 to 205 °C
CCSc1oc2ccccc2c(=S)c1C#N; 175 to 179 °C

We now examine a further compound.
Task item: Indicate its recorded melting point; the compound in question is COc1cc(-c2ccccc2)nc(-c2ccc(CBr)cc2)n1
Reply: 98 to 100 °C

====

Catalogue of compounds with associated melting point

Task item: Indicate its recorded melting point; the compound in question is COCCOCCN1C(=O)C2(COc3cc4c(cc32)OCCO4)c2c1ccc1ncsc21 (centres undefined)
Reply: 156 to 158 °C

Task item: Indicate its recorded melting point; the compound in question is CN(C)c1nc2ccccc2n(-c2ccc(Cl)cc2)c1=O
Reply: 235 to 237 °C

Task item: Indicate its recorded melting point; the compound in question is N#CCN1CCc2ccccc2C(Oc2ccc(C(F)(F)F)cc2)C1 (centres undefined)
Reply: 125 to 129 °C

Task item: Indicate its recorded melting point; the compound in question is CCc1cccc(CNC[C@@H](O)[C@H](Cc2cc(F)cc(F)c2)NC(=O)CC2CCCC(=O)C2)c1 (some centres undefined)
Reply: 140 to 150 °C

Task item: Indicate its recorded melting point; the compound in question is CC(C)c1nc(-c2cccs2)cc(-c2ccc(F)cc2)c1C=O
Reply: 123 to 125 °C

Task item: Indicate its recorded melting point; the compound in question is CCCCCCCCCCCCCCCCCCSC(=O)Nc1ccc(NC(=O)NS(=O)(=O)c2ccc3ccccc3c2)cc1
Reply: 193 °C

Task item: Indicate its recorded melting point; the compound in question is CSC(=C[N+](=O)[O-])NCCSCc1nccs1
Reply: 63 to 64 °C

Task item: Indicate its recorded melting point; the compound in question is CCCC(SCC(N)=O)c1ccc2c(c1)OCO2 (centres undefined)
Reply: 91 to 92 °C

Task item: Indicate its recorded melting point; the compound in question is Cc1nccn1-c1cc2[nH]c(=O)c(=O)n(O)c2cc1C(F)(F)F
Reply: > 300 °C

Task item: Indicate its recorded melting point; the compound in question is COc1cccc(OC)c1CNC(=O)c1ccc2cnccc2n1
Reply: 169 to 171 °C

Task item: Indicate its recorded melting point; the compound in question is COc1cccc(C(O)(Cc2ccncc2)c2cccc(OC)c2)c1
Reply: 134 to 135 °C

Task item: Indicate its recorded melting point; the compound in question is O=C(O)c1cn([C@@H]2C[C@@H]2F)c2c(Cl)c(N3CC4=C(CNC4)C3)c(F)cc2c1=O
Reply: 221 to 223 °C

Task item: Indicate its recorded melting point; the compound in question is O=S1CCON=C1c1ccc(Cl)s1 (centres undefined)
Reply: 102 °C

Task item: Indicate its recorded melting point; the compound in question is COc1ccc(NC(=O)C(=O)c2c3n(c4ccccc24)CCNCC3)cc1Cl
Reply: 221 to 223 °C

Task item: Indicate its recorded melting point; the compound in question is Cc1cccc(-c2nc3ccccn3c2-c2ccnc(-c3ccc(NS(=O)(=O)C(F)(F)F)cc3)c2)n1
Reply: 135 °C

Task item: Indicate its recorded melting point; the compound in question is CC(C)[C@H](NCCC#N)C(=O)O
Reply: 245 to 250 °C

Task item: Indicate its recorded melting point; the compound in question is O=C(Nc1ccc(-n2cnc(Cl)c2Cl)cc1)Nc1ccc(C(F)(F)F)cc1
Reply: 221 to 224 °C

Task item: Indicate its recorded melting point; the compound in question is COC[C@H]1CCCN1NC(=O)c1ccc(-c2[nH]nc3c2C(=O)c2c(NC(=O)NN4CCOCC4)cccc2-3)s1
Reply: 266 to 267 °C

Task item: Indicate its recorded melting point; the compound in question is CN1CC[C@@H](c2c(O)cc(O)c3c(=O)cc(-c4ccc(N)cc4Br)oc23)[C@@H]1CO
Reply: 208 °C

Task item: Indicate its recorded melting point; the compound in question is CCOC(=O)C(C(=O)OCC)c1cccc2nnsc12
Reply: 72 to 74 °C

====

Catalogue of compounds with associated melting point

COc1cccc2c1CCC(CN1C(=O)c3ccccc3C1=O)C2 (stereo not given); 143 to 144 °C
O=C1CCN(c2ccccc2)C(=O)C1=C1SC=CS1; 150 to 152 °C
CCOC(=O)/C=C/c1ccc(OCCOCCOC)cc1Oc1ncc(C(F)(F)F)cc1Cl; 76.6 to 76.8 °C
CC(O)c1ccc2occ(-c3nnn[nH]3)c(=O)c2c1 (stereo not given); 234 to 236 °C

Task item: Indicate its recorded melting point; the compound in question is CCCCc1nc(C(F)(F)F)c(CO)n1Cc1ccc(-c2ccccc2C(=O)O)cc1
Reply: 198 to 200 °C

====

Experimental readout: melting point

As a guide, the following entries are already answered.
COc1cc(C(=O)c2ncc3ccc(C(=O)O)cn23)ccc1[N+](=O)[O-]; 313 °C
CCC(=O)N(Cc1cnc(Cl)s1)C(=N[N+](=O)[O-])NC; 89 to 90 °C
COC(=O)c1ccc(Oc2ccc(NC(=O)c3ccc([N+](=O)[O-])cc3Br)cc2NC(=O)c2ccc([N+](=O)[O-])cc2Br)cc1C(=O)OC; 138 to 142 °C
O=C(O)c1cc(-c2ccc(OCc3ccccc3)cc2OCc2ccccc2)n[nH]1; 218 to 219 °C
COCCNC(=O)c1cccc(-c2cccc3cc(Cc4ccc(Cl)s4)sc23)c1; 104 to 105 °C
Nc1nc(N)c2ncn(COCCOC=O)c2n1; 238 to 240 °C
COc1cc2c(cc1OC)C1=C(C#N)SCCC(=O)N1CC2; 192 to 194 °C
O=C1NCC(CCOC(=O)c2ccccc2)(c2ccc(F)c(F)c2)O1 (stereo not given); 147 °C
Cc1ccc(-c2ccc3c(c2)C=C(C(=O)N[C@H]2CC[C@H](CN(C)C4CCOCC4)CC2)CO3)cc1; 141 to 143 °C
COc1ccc(C(=O)CCC(=O)O)c(Cl)c1Cl; 142 to 144 °C

We now examine a further compound.
Task item: Indicate its recorded melting point; the compound in question is CN1CC(C(=O)N(Cc2ccc(F)cc2)OCC(=O)O)=C(O)C1=O
Reply: 147 to 150 °C
